Below are pIC50 values measured for PDE7A1 (Homo sapiens).
pIC50: −log10 of the molar value. Counter-ions that a name gives are not always drawn.
Readout Label: pIC50

>>> print(df.to_string())
                                    molecule  readout_label  recorded_number
 0  Cn1nc(-c2ccc(C(=O)Nc3nn[nH]n3)cc2)s/c1=N\C1CCCCC1 [I37,4, hydrochloride salt]          pIC50             6.82
 1  Cn1nc(-c2ccc(Cl)cc2)s/c1=N\C1CC2CCC1C2 (stereo not drawn)          pIC50             5.98
 2      Cn1nc(-c2ccc(C#N)cc2)s/c1=N\C1CCCCC1          pIC50             6.57
 3    COc1cc(-c2nn(C)/c(=N/C3CCCCC3)s2)ccc1O          pIC50             6.34
 4   COc1ccc(-c2nn(C)/c(=N/C3CCCCC3)s2)cc1OC          pIC50             6.20
 5  Cn1nc(-c2ccc3cccc(O)c3n2)s/c1=N\C1CCCCC1          pIC50             6.44
 6  CCNC(=O)c1ccc(-c2nn(C)/c(=N/C3CCCCC3)s2)cc1          pIC50             7.19
 7  COC(=O)c1ccc(-c2nn(C)/c(=N/C3CCCCC3)s2)cc1          pIC50             6.64
 8  COc1ccc(NC(=O)c2ccc(-c3nn(C)/c(=N/C4CCCCC4)s3)cc2)c(OC)n1          pIC50             7.01
 9  CN(C)CCNC(=O)c1ccc(-c2nn(C)/c(=N/C3CCCCC3)s2)cc1          pIC50             7.12
10  Cn1nc(-c2cccc(S(N)(=O)=O)c2)s/c1=N\C1CCCCC1          pIC50             6.70
11  COc1cc(-c2nn(C)/c(=N/C3CCCCC3)s2)cc(OC)c1O          pIC50             6.07
12  Cn1nc(-c2ccc(C(=O)NCc3ccncc3)cc2)s/c1=N\C1CCCCC1          pIC50             7.36
13   Cn1nc(-c2ccc(C(=O)O)cc2)s/c1=N\C1CCCCC1          pIC50             6.26
14  COc1cc(-c2nn(C)/c(=N/C3CCCCC3)s2)cc(O)c1OC          pIC50             7.04
15       Cn1nc(-c2ccc(Cl)cc2)s/c1=N\C1CCCCC1          pIC50             5.92
16  CN1CCC(N(C)C(=O)c2ccc(-c3nn(C)/c(=N/C4CCCCC4)s3)cc2)CC1          pIC50             7.14
17  CC(C)NC(=O)c1ccc(-c2nn(C)/c(=N/C3CCCCC3)s2)cc1          pIC50             7.07
18   Cn1nc(-c2ccc(C(N)=O)cc2)s/c1=N\C1CCCCC1          pIC50             7.21
19  CN(C)c1ccc(-c2nn(C)/c(=N/C3CCCCC3)s2)cc1          pIC50             6.52
20  Cn1nc(-c2ccc(Cl)cc2)s/c1=N\c1cccc(C(=O)O)c1          pIC50             6.82
21        Cn1nc(-c2ccc(O)cc2)s/c1=N\C1CCCCC1          pIC50             6.62
22    Cn1nc(-c2ccc3c(c2)OCO3)s/c1=N\C1CCCCC1          pIC50             6.35
23    COc1ccc(-c2nn(C)/c(=N/C3CCCCC3)s2)cc1O          pIC50             6.64
24        Cn1nc(-c2cccc(O)c2)s/c1=N\C1CCCCC1          pIC50             6.54
25  COc1cc(-c2nn(C)/c(=N/C3CCCCC3)s2)cc(OC)c1OC          pIC50             5.89
26           Cn1nc(-c2ccncc2)s/c1=N\C1CCCCC1          pIC50             6.54
